assay protocol: Ratio of fraction unbound in solid supported porcine brain membrane vesicles at 5 uM by TRANSIL assay to fraction unbound in Wistar rat brain homogenate at 5 uM after 5 hrs by equilibrium dialysis method
Assay type: ADME, tissue-based
measure: Ratio
Give bare numbers.

Example cases with answers are listed next.
molecule	Ratio
O=C(CCCN1CCC(O)(c2ccc(Cl)cc2)CC1)c1ccc(F)cc1 [HALOPERIDOL]	1.3
OCCOCCN1CCN(C(c2ccccc2)c2ccc(Cl)cc2)CC1 (stereo not given) [HYDROXYZINE]	2.1
CN(C)CCC=C1c2ccccc2C=Cc2ccccc21 [CYCLOBENZAPRINE]	1.4
Cc1ncc2n1-c1ccc(Cl)cc1C(c1ccccc1F)=NC2 [MIDAZOLAM]	1.8

The record that follows has no Ratio shown yet.
Q) Suppose we examine the molecule CCCC(C)(COC(N)=O)COC(=O)NC(C)C (stereo not given) [CARISOPRODOL] ; what Ratio value has been reported?
A) 1.5

---

Hi there, I'd appreciate the recorded fraction unbound at 5 µM for every entry that follows.
assay protocol: Percentage unbound in solid supported porcine brain membrane vesicles at 5 uM by TRANSIL assay
measurement parameters: pig, solid supported porcine brain membrane vesicles
Give bare numbers.

Example cases with answers are listed next.
compound	fraction unbound at 5 µM
CNCCC(Oc1ccc(C(F)(F)F)cc1)c1ccccc1 (configuration not stated) [FLUOXETINE]	0.003
CC(NC(C)(C)C)C(=O)c1cccc(Cl)c1 (configuration not stated) [BUPROPION]	0.17
CCCCN1CCCCC1C(=O)Nc1c(C)cccc1C (configuration not stated) [BUPIVACAINE]	0.17
CC(C)NCC(O)COc1cccc2ccccc12 (configuration not stated) [PROPRANOLOL]	0.02
CN(C)CCC=C1c2ccccc2CCc2ccccc21 [AMITRIPTYLINE]	0.0073
O=c1n(CCCN2CCN(c3cccc(Cl)c3)CC2)nc2ccccn12 [TRAZODONE]	0.057

The record that follows has no fraction unbound at 5 µM shown yet.
Q) Suppose we examine the compound CCCC(C)(COC(N)=O)COC(=O)NC(C)C (configuration not stated) [CARISOPRODOL] ; what fraction unbound at 5 µM value has been reported?
A) 0.295

---

Hi there, I'd appreciate the recorded pKd for every entry that follows.
assay protocol: Binding affinity to Wistar rat brain lipid by TRANSIL assay
Format: ADME
Numbers only, as −log10 of the molar value.

# batch: return pKd for each of the 3 molecules below
1. O=C(CCCN1CCC(O)(c2ccc(Cl)cc2)CC1)c1ccc(F)cc1
2. CSc1ccc2c(c1)N(CCC1CCCCN1C)c1ccccc1S2 (stereo not drawn)
3. CN1CCN(C2=Nc3cc(Cl)ccc3Nc3ccccc32)CC1

A)
[5.81, 6.43, 6.11]

---

assay protocol: Ratio of fraction unbound in Wistar rat brain homogenate at 5 uM after 5 hrs by equilibrium dialysis method to fraction unbound in solid supported porcine brain membrane vesicles at 5 uM by TRANSIL assay
measure: Ratio
Answers are plain numbers.

Example cases with answers are listed next.
compound	Ratio
Cn1c(=O)c2c(ncn2C)n(C)c1=O	2
CNCCC(Oc1ccc(C(F)(F)F)cc1)c1ccccc1 (stereo not given)	1.3
CNCCC=C1c2ccccc2CCc2ccccc21	1.2
CC(NC(C)(C)C)C(=O)c1cccc(Cl)c1 (stereo not given)	1
CN(C)CCC=C1c2ccccc2CCc2ccccc21	1.2
CSc1ccc2c(c1)N(CCC1CCCCN1C)c1ccccc1S2 (stereo not given)	3.3
CN1CCN(C2=Nc3cc(Cl)ccc3Nc3ccccc32)CC1	1.5
O=C1NC(=O)C(c2ccccc2)(c2ccccc2)N1	1.7
CCCCN1CCCCC1C(=O)Nc1c(C)cccc1C (stereo not given)	1.6

Q) Suppose we examine the compound O=c1n(CCCN2CCN(c3cccc(Cl)c3)CC2)nc2ccccn12 ; what Ratio value has been reported?
A) 1

---

assay protocol: Percentage unbound in solid supported porcine brain membrane vesicles at 5 uM by TRANSIL assay
measurement parameters: pig, Brain
Entries whose fraction unbound at 5 µM is below 0.06 take MET; entries at or above 0.06 take NOT MET.

Answered examples (5):
compound	class
CN1CCN(C2=Nc3cc(Cl)ccc3Nc3ccccc32)CC1	MET
Cc1nc2n(c(=O)c1CCN1CCC(c3noc4cc(F)ccc34)CC1)CCCC2	MET
NC(=O)N1c2ccccc2C=Cc2ccccc21 [CARBAMAZEPINE]	NOT MET
CN(C)CCC=C1c2ccccc2C=Cc2ccccc21	MET
Cn1c(=O)c2c(ncn2C)n(C)c1=O	NOT MET

Q) For this compound, is fraction unbound at 5 µM lower than 0.06? O=C1NC(=O)C(c2ccccc2)(c2ccccc2)N1
A) MET

Q) For this compound, is fraction unbound at 5 µM lower than 0.06? Fc1ccc([C@@H]2CCNC[C@H]2COc2ccc3c(c2)OCO3)cc1
A) MET

Q) For this compound, is fraction unbound at 5 µM lower than 0.06? CCN1CCCC1CNC(=O)c1cc(S(N)(=O)=O)ccc1OC (configuration not stated) [SULPIRIDE]
A) NOT MET

Q) For this compound, is fraction unbound at 5 µM lower than 0.06? CSc1ccc2c(c1)N(CCC1CCCCN1C)c1ccccc1S2 (configuration not stated)
A) MET

Q) For this compound, is fraction unbound at 5 µM lower than 0.06? Cc1ncc2n1-c1ccc(Cl)cc1C(c1ccccc1F)=NC2
A) MET

---

assay protocol: Binding affinity to Wistar rat brain lipid assessed as percentage unbound by TRANSIL assay
Type: ADME, tissue-based
Short version: fraction unbound at least 0.1 is satisfied, less is not satisfied.

Answered examples (5):
compound	class
CN1CCN(CCCN2c3ccccc3Sc3ccc(C(F)(F)F)cc32)CC1	not satisfied
CSc1ccc2c(c1)N(CCC1CCCCN1C)c1ccccc1S2 (stereo not given)	not satisfied
NC(=O)N1c2ccccc2C=Cc2ccccc21 [CARBAMAZEPINE]	satisfied
O=C(CCCN1CCC(O)(c2ccc(Cl)cc2)CC1)c1ccc(F)cc1	not satisfied
O=c1n(CCCN2CCN(c3cccc(Cl)c3)CC2)nc2ccccn12	not satisfied

Q) For this compound, is measured fraction unbound 0.1 or higher? COc1ccc(C(CN(C)C)C2(O)CCCCC2)cc1 (stereo not given)
A) satisfied

Q) For this compound, is measured fraction unbound 0.1 or higher? CCN(CC)CCNC(=O)c1cc(Cl)c(N)cc1OC [METOCLOPRAMIDE]
A) satisfied

Q) For this compound, is measured fraction unbound 0.1 or higher? CNCCC(Oc1ccc(C(F)(F)F)cc1)c1ccccc1 (stereo not given)
A) not satisfied

Q) For this compound, is measured fraction unbound 0.1 or higher? Cc1nc2n(c(=O)c1CCN1CCC(c3noc4cc(F)ccc34)CC1)CCCC2
A) satisfied

Q) For this compound, is measured fraction unbound 0.1 or higher? CC(=O)CC(c1ccccc1)c1c(O)c2ccccc2oc1=O (stereo not given)
A) satisfied

---

measured on: Albumin (Rattus norvegicus)
Sequence (P02770 whole entry): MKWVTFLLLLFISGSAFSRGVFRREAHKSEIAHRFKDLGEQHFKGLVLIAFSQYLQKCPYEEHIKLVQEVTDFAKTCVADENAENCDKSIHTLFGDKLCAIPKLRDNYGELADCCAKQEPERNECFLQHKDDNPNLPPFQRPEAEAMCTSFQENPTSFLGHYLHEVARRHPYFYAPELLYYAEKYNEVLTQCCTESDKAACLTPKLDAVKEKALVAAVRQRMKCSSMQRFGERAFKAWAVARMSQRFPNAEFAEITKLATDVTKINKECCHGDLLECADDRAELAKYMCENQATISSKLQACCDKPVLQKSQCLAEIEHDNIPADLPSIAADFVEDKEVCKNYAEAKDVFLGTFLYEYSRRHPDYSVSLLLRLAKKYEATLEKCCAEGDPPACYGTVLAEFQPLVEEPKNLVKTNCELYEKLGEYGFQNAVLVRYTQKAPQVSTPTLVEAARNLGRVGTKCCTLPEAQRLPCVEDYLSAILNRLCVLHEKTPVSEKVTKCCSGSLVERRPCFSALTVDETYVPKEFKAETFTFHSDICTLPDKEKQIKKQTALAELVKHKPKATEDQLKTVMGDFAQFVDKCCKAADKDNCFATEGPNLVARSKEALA
assay protocol: Binding affinity to Wistar rat serum albumin
pKd: −log10 of the molar value.
Short version: pKd at least 4 is yes (1), less is no (0).

Q) For this molecule, is measured pKd 4 or higher? Cc1nc2n(c(=O)c1CCN1CCC(c3noc4cc(F)ccc34)CC1)CCCC2
A) yes (1)

Q) For this molecule, is measured pKd 4 or higher? CSc1ccc2c(c1)N(CCC1CCCCN1C)c1ccccc1S2 (configuration not stated)
A) yes (1)

Q) For this molecule, is measured pKd 4 or higher? CNCCC(Oc1ccc(C(F)(F)F)cc1)c1ccccc1 (configuration not stated)
A) yes (1)

Q) For this molecule, is measured pKd 4 or higher? O=c1n(CCCN2CCN(c3cccc(Cl)c3)CC2)nc2ccccn12
A) yes (1)

Q) For this molecule, is measured pKd 4 or higher? CN(C)CCC=C1c2ccccc2CCc2ccccc21
A) no (0)

---

assay protocol: Ratio of fraction unbound in Wistar rat brain homogenate at 5 uM after 5 hrs by equilibrium dialysis method to fraction unbound in solid supported porcine brain membrane vesicles at 5 uM by TRANSIL assay
Hi there, I'd appreciate the recorded Ratio for every entry that follows.

# batch: return Ratio for each of the 3 compounds below
1. CC(C)NCC(O)COc1cccc2ccccc12 (stereo not drawn)
2. CCN1CCCC1CNC(=O)c1cc(S(N)(=O)=O)ccc1OC (stereo not drawn) [SULPIRIDE]
3. Fc1ccc([C@@H]2CCNC[C@H]2COc2ccc3c(c2)OCO3)cc1

A)
1.5
2.6
1.5

---

Hi there, I'd appreciate the recorded Ratio for every entry that follows.
assay protocol: Ratio, ratio of fraction unbound in solid supported porcine brain membrane vesicles at 5 uM dosed as discrete compounds after 5 hrs by TRANSIL assay to fraction unbound in solid supported porcine brain membrane vesicles at 5 uM using four compound cocktail after 5 hrs by TRANSIL assay
Format: ADME, Sus scrofa
measurement parameters: pig, in vitro
Answers are plain numbers.

compound	Ratio
CC(C)NCC(O)COc1cccc2ccccc12 (stereo not given)	1

# batch: return Ratio for each of the 4 compounds below
1. CN(C)CCC=C1c2ccccc2CCc2ccccc21
2. CCCCN1CCCCC1C(=O)Nc1c(C)cccc1C (stereo not given)
3. O=C(CCCN1CCC(O)(c2ccc(Cl)cc2)CC1)c1ccc(F)cc1
4. CN1CCN(C2=Nc3cc(Cl)ccc3Nc3ccccc32)CC1

A)
[1, 0.9, 1, 0.8]
